Source listed as patent US6624196B2.

target: MMP-13CD (collagenase-3 catalytic domain) (Homo sapiens, UniProt P45452); construct: Experiments were carried out with the catalytic domains of the proteinases; made in house; host or cells: Escherichia coli; test: Thiopeptolide substrate assay, collagenase-3 catalytic domain; assay type: biochemical; settings: 10 μM concentration of inhibitor (footnote a, Examples 8 through 25); read-out: % inhibition of the enzyme MMP-13CD
Below, each entry is listed alongside its reported inhibition at 10 µM.
recorded-endpoint: inhibition at 10 µM

[
  {
    "smiles-entry": "O=C(O)CCC(=O)c1ccc(NC(=O)c2ccc(Br)cc2)cc1",
    "result": "30%"
  },
  {
    "smiles-entry": "O=C(O)CCC(=O)c1ccc(NC(=O)c2cccnc2)cc1",
    "result": "0%"
  },
  {
    "smiles-entry": "O=C(O)CCC(=O)c1ccc(NC(=O)c2ccc(Cl)cc2Cl)cc1",
    "result": "0%"
  },
  {
    "smiles-entry": "CCCCCCC(=O)Nc1ccc(C(=O)CCC(=O)O)cc1",
    "result": "11%"
  },
  {
    "smiles-entry": "COc1cc(OC)cc(C(=O)Nc2ccc(C(=O)CCC(=O)O)cc2)c1",
    "result": "0%"
  },
  {
    "smiles-entry": "O=C(O)CCC(=O)c1ccc(NC(=O)C=Cc2ccccc2)cc1",
    "result": "9%"
  },
  {
    "smiles-entry": "O=C(O)CCC(=O)c1ccc(NC(=O)CCCc2ccc(Br)cc2)cc1",
    "result": "7%"
  },
  {
    "smiles-entry": "CCCC(=O)Nc1ccc(C(=O)CCC(=O)O)cc1",
    "result": "0%"
  },
  {
    "smiles-entry": "COc1cccc(C(=O)Nc2ccc(C(=O)CCC(=O)O)cc2)c1",
    "result": "11%"
  },
  {
    "smiles-entry": "CCCCCCCC(=O)Nc1ccc(C(=O)CCC(=O)O)cc1",
    "result": "8%"
  },
  {
    "smiles-entry": "CCC(=O)Nc1ccc(C(=O)CCC(=O)O)cc1",
    "result": "9%"
  },
  {
    "smiles-entry": "O=C(O)CCC(=O)c1ccc(NC(=O)c2ccc(Cl)c([N+](=O)[O-])c2)cc1",
    "result": "16%"
  },
  {
    "smiles-entry": "COc1ccccc1C(=O)Nc1ccc(C(=O)CCC(=O)O)cc1",
    "result": "0%"
  },
  {
    "smiles-entry": "CCCCCCCCC(=O)Nc1ccc(C(=O)CCC(=O)O)cc1",
    "result": "3%"
  },
  {
    "smiles-entry": "O=C(O)CCC(=O)c1ccc(NC(=O)c2cccc([N+](=O)[O-])c2)cc1",
    "result": "8%"
  },
  {
    "smiles-entry": "CCCCOc1ccc(C(=O)Nc2ccc(C(=O)CCC(=O)O)cc2)cc1",
    "result": "65%"
  },
  {
    "smiles-entry": "CCc1ccc(C(=O)Nc2ccc(C(=O)CCC(=O)O)cc2)cc1",
    "result": "60%"
  }
]

###

target: MMP-3CD (stromelysin-1 catalytic domain) (Homo sapiens, UniProt P08254); construct: Experiments were carried out with the catalytic domains of the proteinases; made in house; host or cells: Escherichia coli; test: Thiopeptolide substrate assay, stromelysin-1 catalytic domain; assay type: biochemical; conditions: 10 μM concentration of inhibitor (footnote a, Examples 8 through 25); read-out: % inhibition of the enzyme MMP-3CD
Sequence (P08254 100-272 limits assumed): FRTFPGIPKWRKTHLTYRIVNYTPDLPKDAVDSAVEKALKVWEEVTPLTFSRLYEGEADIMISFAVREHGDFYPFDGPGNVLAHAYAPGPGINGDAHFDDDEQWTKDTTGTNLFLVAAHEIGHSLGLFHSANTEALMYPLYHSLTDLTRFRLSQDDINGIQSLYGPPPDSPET
Attribute: inhibition at 10 µM
recorded-endpoint: inhibition at 10 µM (%)

[
  {
    "compound": "CCCCCCCCC(=O)Nc1ccc(C(=O)CCC(=O)O)cc1 [Example 9]",
    "result": 75
  },
  {
    "compound": "O=C(O)CCC(=O)c1ccc(NC(=O)c2ccc(Cl)c([N+](=O)[O-])c2)cc1 [Example 18]",
    "result": 38
  },
  {
    "compound": "COc1ccccc1C(=O)Nc1ccc(C(=O)CCC(=O)O)cc1 [Example 25]",
    "result": 13
  },
  {
    "compound": "CCCCCCCC(=O)Nc1ccc(C(=O)CCC(=O)O)cc1 [Example 10]",
    "result": 66
  },
  {
    "compound": "O=C(O)CCC(=O)c1ccc(NC(=O)CCCc2ccc(Br)cc2)cc1 [Example 14]",
    "result": 48
  }
]

###

target: MMP-2CD (gelatinase A catalytic domain) (Homo sapiens, UniProt P08253, DEL220-393); construct: Experiments were carried out with the catalytic domains of the proteinases; assay: Thiopeptolide substrate assay, gelatinase A catalytic domain; conditions: thiopeptolide substrate; catalytic domain
Sequence (P08253 with tags, fused parts or gaps DEL220-393): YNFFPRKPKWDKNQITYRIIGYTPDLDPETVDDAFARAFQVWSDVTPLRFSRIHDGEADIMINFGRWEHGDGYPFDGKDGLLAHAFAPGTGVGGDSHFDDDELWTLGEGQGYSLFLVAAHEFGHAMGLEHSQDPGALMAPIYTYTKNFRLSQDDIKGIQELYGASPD
Classes by IC50: lowest (below 500 nM), middle (500 nM to below 2000 nM), highest (2000 nM or more)

[
  {
    "smiles-entry": "O=C(O)CCC(=O)c1ccc(NC(=O)c2ccc(F)cc2)cc1",
    "label": "middle"
  },
  {
    "smiles-entry": "O=C(O)CCC(=O)c1ccc(NC(=O)c2ccc([N+](=O)[O-])cc2)cc1",
    "label": "lowest"
  },
  {
    "smiles-entry": "O=C(O)CCC(=O)c1ccc(NC(=O)c2ccc(Cl)cc2)cc1",
    "label": "lowest"
  },
  {
    "smiles-entry": "O=C(O)CCC(=O)c1ccc(NC(=O)c2cccs2)cc1",
    "label": "lowest"
  },
  {
    "smiles-entry": "O=C(O)CCC(=O)c1ccc(NC(=O)c2ccc(F)cc2F)cc1",
    "label": "middle"
  },
  {
    "smiles-entry": "CCCCC(=O)Nc1ccc(C(=O)CCC(=O)O)cc1",
    "label": "highest"
  },
  {
    "smiles-entry": "O=C(O)CCC(=O)c1ccc(NC(=O)c2ccco2)cc1",
    "label": "middle"
  },
  {
    "smiles-entry": "O=C(O)CCC(=O)c1ccc(NC(=O)c2cccc(F)c2)cc1",
    "label": "middle"
  },
  {
    "smiles-entry": "COc1ccc(C(=O)Nc2ccc(C(=O)CCC(=O)O)cc2)cc1",
    "label": "lowest"
  },
  {
    "smiles-entry": "O=C(O)CCC(=O)c1ccc(NC(=O)Cc2ccccc2)cc1",
    "label": "highest"
  },
  {
    "smiles-entry": "O=C(O)CCC(=O)c1ccc(NC(=O)c2ccccc2F)cc1",
    "label": "middle"
  },
  {
    "smiles-entry": "Cc1ccc(C(=O)Nc2ccc(C(=O)CCC(=O)O)cc2)cc1",
    "label": "lowest"
  },
  {
    "smiles-entry": "O=C(O)CCC(=O)Nc1ccc(C(=O)CCC(=O)O)cc1",
    "label": "highest"
  }
]

###

pIC50: −log10 of the molar value.
The compounds below have reported pIC50 for MMP-3CD (stromelysin-1 catalytic domain) (Homo sapiens).

[
  {
    "smiles-entry": "O=C(O)CCC(=O)c1ccc(NC(=O)c2cccc(F)c2)cc1",
    "pIC50": 5.21
  },
  {
    "smiles-entry": "O=C(O)CCC(=O)c1ccc(NC(=O)c2ccc([N+](=O)[O-])cc2)cc1",
    "pIC50": 5.62
  },
  {
    "smiles-entry": "O=C(O)CCC(=O)c1ccc(NC(=O)c2ccc(Cl)cc2)cc1",
    "pIC50": 6.09
  },
  {
    "smiles-entry": "COc1ccc(C(=O)Nc2ccc(C(=O)CCC(=O)O)cc2)cc1",
    "pIC50": 6.47
  },
  {
    "smiles-entry": "O=C(O)CCC(=O)Nc1ccc(C(=O)CCC(=O)O)cc1",
    "pIC50": 4.89
  }
]

###

inhibition at 10 µM reference
biological target: MMP-3CD (stromelysin-1 catalytic domain) (Homo sapiens, UniProt P08254); construct: Experiments were carried out with the catalytic domains of the proteinases; made in house; host or cells: Escherichia coli; assay: Thiopeptolide substrate assay, stromelysin-1 catalytic domain; type: biochemical; settings: 10 μM concentration of inhibitor (footnote a, Examples 8 through 25); read-out: % inhibition of the enzyme MMP-3CD

[
  {
    "smiles-entry": "CCCCOc1ccc(C(=O)Nc2ccc(C(=O)CCC(=O)O)cc2)cc1",
    "inhibition at 10 µM": "78%"
  },
  {
    "smiles-entry": "CCC(=O)Nc1ccc(C(=O)CCC(=O)O)cc1",
    "inhibition at 10 µM": "21%"
  },
  {
    "smiles-entry": "COc1cccc(C(=O)Nc2ccc(C(=O)CCC(=O)O)cc2)c1",
    "inhibition at 10 µM": "31%"
  },
  {
    "smiles-entry": "O=C(O)CCC(=O)c1ccc(NC(=O)c2ccc(Cl)cc2Cl)cc1",
    "inhibition at 10 µM": "11%"
  },
  {
    "smiles-entry": "CCCCCCC(=O)Nc1ccc(C(=O)CCC(=O)O)cc1",
    "inhibition at 10 µM": "70%"
  },
  {
    "smiles-entry": "O=C(O)CCC(=O)c1ccc(NC(=O)c2cccc([N+](=O)[O-])c2)cc1",
    "inhibition at 10 µM": "23%"
  },
  {
    "smiles-entry": "O=C(O)CCC(=O)c1ccc(NC(=O)C=Cc2ccccc2)cc1",
    "inhibition at 10 µM": "72%"
  }
]
